assay comment: Confirmation screen for delayed death inhibitors of the malarial parasite plastid, 96 hour incubation; also: potency is read from the fitted curve at half-maximal effect; nearly all actives have a fitted effect of over 60% in size
measurement setup: P. falciparum luciferase growth in erythrocytes; series mostly up to 28.7 µM
In all, about 2,300 compounds went through this assay and about 1,400 (61%) were called active. Another 29% or so got no clear call; they are omitted. So high a share suggests a set chosen from earlier hits. The list shows a part of the results.
# Potency listing for each entry below
reported endpoint: Potency

compound: CC[C@@H](C)C(NC(=O)OC(C)(C)C)c1cn([C@@H](Cc2ccc(O)cc2)C(=O)N2CCN(C(=O)OC(C)(C)C)CC2)nn1 (some centres undefined)
result: 8.91 µM (active)

compound: CC[C@@H](C)C(NC(=O)OC(C)(C)C)c1cn([C@@H](CCCCNC(=O)OC(C)(C)C)C(=O)N2CCN(C(=O)OC(C)(C)C)CC2)nn1 (some centres undefined)
result: 1.26 µM (active)

compound: CO[C@H]1OC2O[C@@]3(C)CC[C@H]4[C@H](C)CC[C@@H]([C@H]1C)[C@@]24OO3 (some centres undefined)
result: 0.0631 µM (active)

compound: CC1CCCC(NC(=O)c2cc(-c3ccncc3)nc3ccccc23)C1C (centres undefined)
result: 11.2 µM (active)

compound: CCc1ccc(-c2cn(C3CCCCC3)c(=S)[nH]2)cc1
result: 6.31 µM (active)

compound: Cc1cc(=O)n2nc(N3CCC(C(=O)NCc4ccc(F)cc4)CC3)sc2n1
result: 8.91 µM (active)

compound: CCOc1ccc2c(c1)C(c1ccccc1)=NNC(c1ccccc1)=N2
result: 10 µM (active)

compound: CC(C)[C@H](NC(=O)[C@@H]1Cc2c([nH]c3ccccc23)C2c3ccccc3C(=O)N21)C(=O)N1CCC[C@@H]1C(=O)O (some centres undefined)
result: 14.1 µM (active)

compound: Cc1cc(=O)n2nc(N3CCC(C(=O)NCCc4ccc(Cl)cc4)CC3)sc2n1
result: 10 µM (active)
